Record form. Attribute: IC50. Fill in for each entry.
Tested on: HeLa
Assay: Anticancer activity against Homo sapiens (human) HeLa cells assessed as inhibition of cell viability after 72 hr by MTT assay
Assay type: functional, cell-based
Response body: numeric value in µM, unit text excluded.

INPUT: Reported IC50, molecule CC(C)(C)Oc1ccc(-c2nnc(SCCCN3CCN(c4nc5ccccc5s4)CC3)o2)cc1 : ____
OUTPUT: 217

INPUT: Reported IC50, molecule Fc1ccc(-c2nnc(SCCCN3CCN(c4nc5ccccc5o4)CC3)o2)cc1 : ____
OUTPUT: 196

INPUT: Reported IC50, molecule O=[N+]([O-])c1ccc(-c2nnc(SCCCN3CCN(c4nc5ccccc5o4)CC3)o2)cc1 : ____
OUTPUT: 114

INPUT: Reported IC50, molecule COc1ccc(-c2nnc(SCCCN3CCN(c4nc5ccccc5s4)CC3)o2)cc1 : ____
OUTPUT: 165

INPUT: Reported IC50, molecule Clc1ccc(-c2nnc(SCCCN3CCN(c4nc5ccccc5o4)CC3)o2)cc1 : ____
OUTPUT: 101

---

System: HeLa
Assay: Anticancer activity against Homo sapiens (human) HeLa cells assessed as inhibition of cell viability after 72 hr by MTT assay
Type: functional, cell-based
Lab note - cut at 100 µM for IC50: Yes if strictly below, No if not.

INPUT: Find out if reported IC50 for Clc1ccc(-c2nnc(SCCCN3CCN(c4nc5ccccc5s4)CC3)o2)cc1 is less than 100 µM
OUTPUT: No

INPUT: Find out if reported IC50 for Cc1ccc(-c2nnc(SCCCN3CCN(c4nc5ccccc5s4)CC3)o2)cc1 is less than 100 µM
OUTPUT: No

INPUT: Find out if reported IC50 for Cc1ccc(-c2nnc(SCCCN3CCN(c4nc5ccccc5o4)CC3)o2)cc1 is less than 100 µM
OUTPUT: No

INPUT: Find out if reported IC50 for O=C(NCc1nnc(SCCCN2CCN(c3nc4ccccc4s3)CC2)o1)c1ccccc1 is less than 100 µM
OUTPUT: Yes

INPUT: Find out if reported IC50 for O=C(NCc1nnc(SCCCN2CCN(c3nc4ccccc4o3)CC2)o1)c1ccccc1 is less than 100 µM
OUTPUT: Yes

INPUT: Find out if reported IC50 for Fc1ccc(-c2nnc(SCCCN3CCN(c4nc5ccccc5s4)CC3)o2)cc1 is less than 100 µM
OUTPUT: No

INPUT: Find out if reported IC50 for Oc1ccc(-c2nnc(SCCCN3CCN(c4nc5ccccc5s4)CC3)o2)cc1 is less than 100 µM
OUTPUT: No

INPUT: Find out if reported IC50 for Brc1ccc(-c2nnc(SCCCN3CCN(c4nc5ccccc5s4)CC3)o2)cc1 is less than 100 µM
OUTPUT: No

---

Tested on: HeLa
Assay: Anticancer activity against Homo sapiens (human) HeLa cells assessed as inhibition of cell viability after 72 hr by MTT assay
Type: functional, cell-based
Lab note - cut at 200 µM for IC50: Condition met if strictly below, Condition not met if not.

INPUT: Find out if reported IC50 for c1ccc(-c2nnc(SCCCN3CCN(c4nc5ccccc5o4)CC3)o2)cc1 is less than 200 µM
OUTPUT: Condition met

INPUT: Find out if reported IC50 for CC(C)(C)Oc1ccc(-c2nnc(SCCCN3CCN(c4nc5ccccc5o4)CC3)o2)cc1 is less than 200 µM
OUTPUT: Condition not met

INPUT: Find out if reported IC50 for COc1ccc(-c2nnc(SCCCN3CCN(c4nc5ccccc5o4)CC3)o2)cc1 is less than 200 µM
OUTPUT: Condition not met

INPUT: Find out if reported IC50 for Brc1ccc(-c2nnc(SCCCN3CCN(c4nc5ccccc5o4)CC3)o2)cc1 is less than 200 µM
OUTPUT: Condition met

INPUT: Find out if reported IC50 for c1ccc(-c2nnc(SCCCN3CCN(c4nc5ccccc5s4)CC3)o2)cc1 is less than 200 µM
OUTPUT: Condition not met
